The measured values listed here are drawn from patent US20120178694A1.

Molecular target: biotinylated C3b (UniProt P01024)
Test: SPR, Biacore 3000; biotinylated C3b on streptavidin chip, peptide injected; 1:1 fit
Bridge positions count the residues as written; N and C are the ends. Square brackets hold non-standard residues; d marks the D form. Trp(1-Me) = Cn1cc(C[C@H](N)C(=O)O)c2ccccc21; NMeI = CC[C@H](C)[C@H](NC)C(=O)O; Nle = CCCC[C@H](N)C(=O)O; Sar = CNCC(=O)O

{"columns": ["Binder", "Uom", "koff"],
 "data": [
  ["Ac-ICV[Trp(1-Me)]QDW[Sar]AHRC[Nle]-NH2 (disulfide 2-12; SMILES CCCC[C@H](NC(=O)[C@@H]1CSSC[C@H](NC(=O)[C@@H](NC(C)=O)[C@@H](C)CC)C(=O)N[C@@H](C(C)C)C(=O)N[C@@H](Cc2cn(C)c3ccccc23)C(=O)N[C@@H](CCC(N)=O)C(=O)N[C@@H](CC(=O)O)C(=O)N[C@@H](Cc2c[nH]c3ccccc23)C(=O)N(C)CC(=O)N[C@@H](C)C(=O)N[C@@H](Cc2c[nH]cn2)C(=O)N[C@@H](CCCNC(=N)N)C(=O)N1)C(N)=O) [Ac-Ic[CV(1-MeW)QDW(N-MeG)AHRC](Nle)-NH2]", "s⁻¹", 0.0066],
  ["ICVWQDWGAHRCIK (not fully specified; N-terminal acetyl; 1-methyl-Trp at 4; N-methyl-Gly (Sar) at 8; disulfide Cys2-Cys12 (cyclic); two mini-PEG-3 spacers between Ile13 and a C-terminal Lys-NH2; albumin-binding small molecule (ABM) on the Lys side chain) [Peptide 17-ABM]", "s⁻¹", 0.0056],
  ["Ac-ICV[Trp(1-Me)]QDW[Sar]AHRC[NMeI]-NH2 (disulfide 2-12; SMILES CC[C@H](C)[C@H](NC(C)=O)C(=O)N[C@H]1CSSC[C@@H](C(=O)N(C)[C@H](C(N)=O)[C@@H](C)CC)NC(=O)[C@H](CCCNC(=N)N)NC(=O)[C@H](Cc2c[nH]cn2)NC(=O)[C@H](C)NC(=O)CN(C)C(=O)[C@H](Cc2c[nH]c3ccccc23)NC(=O)[C@H](CC(=O)O)NC(=O)[C@H](CCC(N)=O)NC(=O)[C@H](Cc2cn(C)c3ccccc23)NC(=O)[C@H](C(C)C)NC1=O, Sar^8, (NMe)Ile^13; also called peptide 21; analog 21) [Ac-Ic[CV(1-MeW)QDW(N-MeG)AHRC](N-MeI)-NH2]", "s⁻¹", 0.0035],
  ["Peptide 17-ABP (propiolic acid on the N-terminus, joined by triazole to the azido-Lys of the peptide 17 chain; N-terminal acetyl; 1-methyl-Trp at 4; N-methyl-Gly (Sar) at 8; disulfide Cys2-Cys12 (cyclic); two mini-PEG-3 spacers between Ile13 and a C-terminal Lys-NH2; 2-azidoacetyl on the Lys side chain, joined by azide-alkyne cycloaddition (triazole) to the ABP) peptide: ICVWQDWGAHRCIK RLIEDICLPRWGCLWEDD", "s⁻¹", 0.0036],
  ["Ac-ICV[Trp(1-Me)]QDW[Sar]AHRCL-NH2 (disulfide 2-12; SMILES CC[C@H](C)[C@H](NC(C)=O)C(=O)N[C@H]1CSSC[C@@H](C(=O)N[C@@H](CC(C)C)C(N)=O)NC(=O)[C@H](CCCNC(=N)N)NC(=O)[C@H](Cc2c[nH]cn2)NC(=O)[C@H](C)NC(=O)CN(C)C(=O)[C@H](Cc2c[nH]c3ccccc23)NC(=O)[C@H](CC(=O)O)NC(=O)[C@H](CCC(N)=O)NC(=O)[C@H](Cc2cn(C)c3ccccc23)NC(=O)[C@H](C(C)C)NC1=O) [Ac-Ic[CV(1-MeW)QDW(N-MeG)AHRC]L-NH2]", "s⁻¹", 0.006],
  ["Ac-ICV[Trp(1-Me)]QDW[Sar]AHRCI-NH2 (disulfide 2-12; SMILES CC[C@H](C)[C@H](NC(=O)[C@@H]1CSSC[C@H](NC(=O)[C@@H](NC(C)=O)[C@@H](C)CC)C(=O)N[C@@H](C(C)C)C(=O)N[C@@H](Cc2cn(C)c3ccccc23)C(=O)N[C@@H](CCC(N)=O)C(=O)N[C@@H](CC(=O)O)C(=O)N[C@@H](Cc2c[nH]c3ccccc23)C(=O)N(C)CC(=O)N[C@@H](C)C(=O)N[C@@H](Cc2c[nH]cn2)C(=O)N[C@@H](CCCNC(=N)N)C(=O)N1)C(N)=O, Sar^8, Ile^13; also called peptide 17; Ac-Ic[CV(1-MeW)QDW(N-MeG)AHRC]I-NH2) [Ac-Ile-c[Cys-Val-Trp(Me)-Gln-Asp-Trp-Sar-Ala-His-Arg-Cys]-Ile-NH2]", "s⁻¹", 0.0066]
]}
